Data origin, for the record: ChEMBL document CHEMBL1153248

test: Inhibition of Yersinia PTP
pKi: −log10 of the molar value.
metric_name: pKi

# cpd_smiles, metric_name, quantitative_result
measured = [
    ("O=P(O)(O)C(c1ccc(O)cc1)P(=O)(O)O", "pKi", 3.24),
    ("CCCOc1c2cccc1Cc1cc(C(P(=O)(O)O)P(=O)(O)O)cc(c1O)Cc1cccc(c1OCCC)Cc1cccc(c1O)C2", "pKi", 5.15),
    ("O=P(O)(O)Cc1cc2c(O)c(c1)Sc1cc(CP(=O)(O)O)cc(c1O)Sc1cc(CP(=O)(O)O)cc(c1O)Sc1cc(CP(=O)(O)O)cc(c1O)S2", "pKi", 6.66),
    ("O=P(O)(O)C(c1cc2c(O)c(c1)Cc1cc(C(P(=O)(O)O)P(=O)(O)O)cc(c1O)Cc1cc(C(P(=O)(O)O)P(=O)(O)O)cc(c1O)Cc1cc(C(P(=O)(O)O)P(=O)(O)O)cc(c1O)C2)P(=O)(O)O", "pKi", 4.40),
    ("O=P(O)(O)Cc1cc2c(O)c(c1)Cc1cc(CP(=O)(O)O)cc(c1O)Cc1cc(CP(=O)(O)O)cc(c1O)Cc1cc(CP(=O)(O)O)cc(c1O)C2", "pKi", 6.04),
    ("CCCOc1c2cccc1Cc1cc(C(P(=O)(O)O)P(=O)(O)O)cc(c1O)Cc1cccc(c1OCCC)Cc1cc(C(P(=O)(O)O)P(=O)(O)O)cc(c1O)C2", "pKi", 5.85),
]

###

target: Receptor-type tyrosine-protein phosphatase beta (Homo sapiens, UniProt P23467); assay: Inhibition of human recombinant PTPbeta
Sequence (P23467 whole entry): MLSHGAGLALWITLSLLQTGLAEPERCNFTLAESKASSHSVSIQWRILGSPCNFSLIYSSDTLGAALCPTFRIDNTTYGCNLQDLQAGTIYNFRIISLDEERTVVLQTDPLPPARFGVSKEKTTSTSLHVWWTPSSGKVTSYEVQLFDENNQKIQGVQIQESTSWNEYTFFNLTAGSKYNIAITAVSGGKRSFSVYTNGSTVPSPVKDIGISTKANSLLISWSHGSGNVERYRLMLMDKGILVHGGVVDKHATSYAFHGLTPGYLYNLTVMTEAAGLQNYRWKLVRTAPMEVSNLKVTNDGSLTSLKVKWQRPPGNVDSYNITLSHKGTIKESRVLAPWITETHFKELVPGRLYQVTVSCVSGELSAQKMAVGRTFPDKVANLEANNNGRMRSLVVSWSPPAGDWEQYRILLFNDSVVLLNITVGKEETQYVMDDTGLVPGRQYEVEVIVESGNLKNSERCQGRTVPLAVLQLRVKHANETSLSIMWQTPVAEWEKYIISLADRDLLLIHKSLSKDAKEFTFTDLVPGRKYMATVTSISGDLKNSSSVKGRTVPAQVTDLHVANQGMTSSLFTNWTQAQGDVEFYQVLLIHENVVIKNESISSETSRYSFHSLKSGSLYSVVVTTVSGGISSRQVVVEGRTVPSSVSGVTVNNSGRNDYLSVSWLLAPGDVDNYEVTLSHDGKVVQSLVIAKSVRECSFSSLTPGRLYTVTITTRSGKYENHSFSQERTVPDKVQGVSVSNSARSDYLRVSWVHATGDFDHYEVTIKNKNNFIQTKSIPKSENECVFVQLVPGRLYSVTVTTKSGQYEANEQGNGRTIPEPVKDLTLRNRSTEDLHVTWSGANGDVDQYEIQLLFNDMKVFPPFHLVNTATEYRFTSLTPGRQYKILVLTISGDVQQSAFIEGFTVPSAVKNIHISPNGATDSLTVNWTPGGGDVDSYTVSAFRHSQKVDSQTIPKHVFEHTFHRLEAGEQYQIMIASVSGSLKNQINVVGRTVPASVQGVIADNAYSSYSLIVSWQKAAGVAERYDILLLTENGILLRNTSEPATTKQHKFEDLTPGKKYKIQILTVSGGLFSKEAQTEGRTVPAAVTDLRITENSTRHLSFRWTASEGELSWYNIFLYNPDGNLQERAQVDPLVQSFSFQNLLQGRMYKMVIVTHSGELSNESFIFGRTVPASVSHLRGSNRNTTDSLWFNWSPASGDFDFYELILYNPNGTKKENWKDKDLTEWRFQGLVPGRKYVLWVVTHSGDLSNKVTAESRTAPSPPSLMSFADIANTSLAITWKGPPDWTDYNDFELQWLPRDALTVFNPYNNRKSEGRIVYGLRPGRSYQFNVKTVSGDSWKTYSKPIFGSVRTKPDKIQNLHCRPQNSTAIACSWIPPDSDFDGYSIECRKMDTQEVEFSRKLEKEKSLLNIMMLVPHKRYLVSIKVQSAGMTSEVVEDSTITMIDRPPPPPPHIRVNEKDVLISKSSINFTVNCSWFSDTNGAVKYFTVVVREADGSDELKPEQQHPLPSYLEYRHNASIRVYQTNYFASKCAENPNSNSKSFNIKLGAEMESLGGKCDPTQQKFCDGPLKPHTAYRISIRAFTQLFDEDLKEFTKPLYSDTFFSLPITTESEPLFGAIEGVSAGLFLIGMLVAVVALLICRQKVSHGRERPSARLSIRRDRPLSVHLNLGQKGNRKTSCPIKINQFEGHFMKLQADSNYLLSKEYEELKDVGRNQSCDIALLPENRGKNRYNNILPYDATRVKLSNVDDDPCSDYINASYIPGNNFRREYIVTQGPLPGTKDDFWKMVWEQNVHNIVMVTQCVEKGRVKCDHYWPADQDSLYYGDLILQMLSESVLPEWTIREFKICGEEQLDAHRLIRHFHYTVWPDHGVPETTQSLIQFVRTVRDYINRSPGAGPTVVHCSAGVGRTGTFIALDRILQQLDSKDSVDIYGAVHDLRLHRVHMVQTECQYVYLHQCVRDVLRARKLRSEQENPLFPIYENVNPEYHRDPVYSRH
Entries annotated with measured IC50

# cpd_smiles, IC50 [µM]
measured = [
    ("O=P(O)(O)Cc1cc2c(O)c(c1)Sc1cc(CP(=O)(O)O)cc(c1O)Sc1cc(CP(=O)(O)O)cc(c1O)Sc1cc(CP(=O)(O)O)cc(c1O)S2", 0.13),
    ("O=P(O)(O)Cc1cc2c(O)c(c1)Cc1cc(CP(=O)(O)O)cc(c1O)Cc1cc(CP(=O)(O)O)cc(c1O)Cc1cc(CP(=O)(O)O)cc(c1O)C2", 3.8),
    ("CCCOc1c2cccc1Cc1cc(C(P(=O)(O)O)P(=O)(O)O)cc(c1O)Cc1cccc(c1OCCC)Cc1cc(C(P(=O)(O)O)P(=O)(O)O)cc(c1O)C2", 32),
]
